tested on: Pseudomonas aeruginosa ATCC 27853; assay: MIC assay (planktonic growth inhibition, OD600); format: cell-based, P. aeruginosa; details: Pseudomonas aeruginosa, ATCC27853; minimal concentration reducing final OD600 by 90%; 24 h at 37° C.; read-out: P. aeruginosa MIC90
Provide the recorded IC90 for the entries that follow.

**Q:** Item Cc1ccc(SSc2ccc(C)cc2)cc1 [Di-p-tolyl disulfide] has what recorded IC90?
**A:** > 4 mM

**Q:** Item CCCCCCSSCCCCCC [Di-n-hexyl disulfide] has what recorded IC90?
**A:** > 4 mM

**Q:** Item CCCSSC [Methyl propyl disulfide] has what recorded IC90?
**A:** > 4 mM

**Q:** Item COc1ccc(SSc2ccc(OC)cc2)cc1 [Bis (4-methoxyphenyl) disulfide, Bis(4-methoxyphenyl) disulfide] has what recorded IC90?
**A:** > 4 mM

**Q:** Item CCCS[S+]([O-])CCC (stereo not shown) [Di-n-propyl thiosulfinate, S-propyl propane-1-sulfinothioate] has what recorded IC90?
**A:** 2 mM

**Q:** Item CCCSSCCC [Di-n-propyl disulfide] has what recorded IC90?
**A:** > 4 mM

**Q:** Item Fc1ccc(SSc2ccc(F)cc2)cc1 [Bis (4-fluorophenyl) disulfide] has what recorded IC90?
**A:** 0.25 mM

**Q:** Item c1coc(CSSCc2ccco2)c1 [Di-furfuryl disulfide] has what recorded IC90?
**A:** > 4 mM

**Q:** Item Clc1ccc(SSc2ccc(Cl)cc2)cc1 [Bis (4-chlorophenyl) disulfide, Bis(4-chlorophenyl) disulfide] has what recorded IC90?
**A:** 0.03 mM

**Q:** Item CC(C)SSC(C)C [Di-isopropyl disulfide] has what recorded IC90?
**A:** > 4 mM

**Q:** Item CCCCSSCCCC [Di-n-butyl disulfide] has what recorded IC90?
**A:** > 4 mM

**Q:** Item CCCCCCCCCCSSCCCCCCCCCC [Di-n-decyl disulfide] has what recorded IC90?
**A:** > 4 mM

**Q:** Item c1ccc(SSc2ccccc2)cc1 [Di-phenyl disulfide] has what recorded IC90?
**A:** > 4 mM
